Origin of measurements: patent US20260116991A1

target: T1, human GPC3-His protein (human, UniProt P51654 25-559)
T1 construct: Bought protein; also called human GPC3 protein; not shown: His tag
protocol-text: ELISA, coated human GPC3, antibody 1 nM;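 note: antigen coated at 1 µg/mL on 96-well plates, antibody bound for 2 h at 37 °C, detected with HRP-labeled secondary antibody and TMB, absorbance read at 450 nm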
Below, each of the binders is paired with its reported OD450 nm value.
Report only the number, with the unit OD450 understood.

Please review the following examples before continuing.
binder: F1.118.4 human-murine chimeric antibody (antibody, human IgG1, kappa, V domains shown) VH: QVQLQQSGAELAKPGASVKLSCKASGYSFTSYWIHWVKQRPGQGLEWIGYINPSSGYTKYNQKFKDKATLTADKSSSTAYMQLSSLTYEDSAVYYCARFGSSSFYFDYWGQGTTLTVSS VL: DIVLTQSPASLAVSLGQRATISCRASQSVSSSSYSYMHWYQQKPGQPPKLLIKYASNLDSGVPARFSGSGSGTDFTLNIHPVEEEDTATYYCQHSWEIPAFGGGTKLEIKR
OD450 nm, OD450: 1.64

binder: F1.110.24 human-murine chimeric antibody (antibody, human IgG1, kappa, V domains shown) VH: EVKLVESGGGLVQPGGSLKLSCAASGFTFSDFYMYWVRQTPEKRLEWVAFISNGGGSTYYPDTVKGRFTISRDNVKNTLYLQMSRLKSEDTAMYYCARPDTSWFAYWGQGSLVTVSA VL: DIQMTQTTSSLSASLGDRVTISCRASQDIDNYLNWYQQKPDGTVKVLISYTSRLHSGVPSRFSGSGSGTDYSLTISNLEQEDIATYFCQQGNTLPWTFGGGTKLEIKR
OD450 nm, OD450: 0.77

Next:
stdin: Recorded OD450 nm for F1.83.6 human-murine chimeric antibody (antibody, human IgG1, kappa, V domains shown) VH: QVQLQQSGPELVKPGASVKISCKASGYAFSSSWMNWVKQRPGKGLEWIGRIYPGDGDTNYNGRFKGKATLTVDKSSSTAYMQLSSLTSEDSAVYFCARGGVFTMALDHWGQGTTLTVSS VL: DIQMTQSPSSLSASLGGKVTITCKASQDINKYIAWYQHKPGKGPRLLIHYTSTLQPGIPSRFSGSGSGRDYSFSISNLEPEDIATYYCLQYDNLFTFGGGTKLEIKR , please?
stdout: 0.83
